# Experimental system: human recombinant mGluR5 receptor (Homo sapiens)
# Construct: expressed in transfected cells; expression induced with doxycycline
# Measurement notes: mGluR5 in vitro functional assay (aequorin cell line, inhibition of glutamate EC80 response)
# Type: cell-based
# Run conditions: Table 1; aequorin cell line expressing human mGluR5, reference agonist glutamate at EC80; obtained in duplicate; read-out: IC50
Measured attribute: IC50

Fill in the blank: the reported IC50 of COc1cc(F)cc(N2CCc3oc(-c4ccccn4)nc3C2)c1 is ____.
< 1000 nM

Next up: Cc1cc(-c2nc3c(o2)CCN(c2ccccn2)C3)on1
> 10000 nM

Next up: N#Cc1cccc(N2CCc3oc(-c4ccccn4)nc3C2)n1
< 1000 nM

Next up: N#Cc1cccc(N2CCc3nc(-c4ccccn4)oc3CC2)c1
< 1000 nM

Next up: N#Cc1cc(N2CCc3oc(-c4ccccn4)nc3C2)ccn1
< 1000 nM

Next up: N#Cc1cc(N2CCc3oc(-c4ccccn4)nc3C2)cc(C(F)(F)F)c1
< 1000 nM

Next up: N#Cc1cc(N2CCOCC2)cc(N2CCc3nc(-c4ccccn4)oc3C2)c1
> 10000 nM

Next up: Cc1ccc(-c2nc3c(o2)CN(c2cccc(C#N)c2)CC3)nc1
< 10000 nM

Next up: N#Cc1cc(Br)cc(N2CCc3nc(-c4ccccn4)oc3C2)c1
< 1000 nM

Next up: N#Cc1cccnc1N1Cc2nc(-c3ccccn3)oc2C1
< 1000 nM

Next up: N#Cc1cccnc1N1CCc2oc(-c3ccccn3)nc2C1
< 1000 nM

Next up: N#Cc1cc(F)cc(CN2CCc3oc(-c4ccccn4)nc3C2)c1
< 10000 nM

Next up: Clc1ccc(-c2nc3c(o2)CN(c2ccccn2)CC3)cc1
< 1000 nM

Next up: N#Cc1cc(N2CCc3oc(-c4ccccn4)nc3C2)ccc1F
< 10000 nM

Next up: N#Cc1cc(F)cc(N2CCc3oc(-c4ccc(F)cn4)nc3C2)c1
< 1000 nM

Next up: CC1Cc2nc(-c3ccccn3)oc2CN1c1cc(F)cc(C#N)c1 (stereo not drawn)
< 1000 nM

Next up: N#Cc1ccnc(N2CCc3nc(-c4ccccn4)oc3C2)c1
< 10000 nM

Next up: Cc1cccc(-c2nc3c(o2)CN(c2ccccn2)CC3)c1
< 1000 nM

Next up: Clc1cccc(-c2nc3c(o2)CCN(c2cnccn2)C3)c1
< 1000 nM

Next up: Fc1cc(-c2ccncc2)cc(N2CCc3nc(-c4ccccn4)oc3C2)c1
< 10000 nM

Next up: c1ccc(-c2nc3c(o2)CCN(c2cnccn2)C3)cc1
< 10000 nM

Next up: O=C(c1ccc(F)cc1)N1CCc2oc(-c3ccc(F)cc3)nc2C1
< 10000 nM

Next up: N#Cc1cc(N2CCc3nc(-c4ccccn4)oc3C2)ccn1
< 10000 nM

Next up: N#Cc1cccc(N2CCc3nc(-c4cccc[n+]4[O-])oc3C2)c1
< 1000 nM

Next up: N#Cc1cccc(-c2nc3c(o2)CCN(c2cccc(C#N)c2)C3)c1
< 1000 nM

Next up: N#Cc1cc(F)cc(N2CCn3cc(-c4ccccn4)nc3C2)c1
< 1000 nM

Next up: N#Cc1cccnc1N1CCc2oc(-c3ccc(F)cc3)nc2C1
> 10000 nM

Next up: N#Cc1cccc(N2Cc3nc(-c4ccccn4)oc3C2)c1
< 1000 nM

Next up: c1ccc(-c2nc3c(o2)CN(c2cnccn2)CC3)cc1
< 10000 nM

Next up: Fc1cc(F)cc(N2CCc3oc(-c4ccccn4)nc3C2)c1
< 1000 nM

Next up: N#Cc1cccc(N2CCc3nc(-c4ccccn4)oc3C2)c1
< 1000 nM

Next up: c1ccc(-c2nc3c(o2)CCN(c2ccccn2)C3)cc1
< 10000 nM

Next up: N#Cc1cc(F)cc(N2CCCc3nc(-c4ccc(F)cn4)oc3C2)c1
< 1000 nM

Next up: Fc1cccc(N2CCCc3oc(-c4ccccn4)nc3C2)c1
< 1000 nM

Next up: N#Cc1cccc(N2CCc3nc(-c4ccncc4)oc3C2)c1
< 10000 nM

Next up: N#Cc1cccc(-c2nc3c(o2)CN(c2cccc(C#N)c2)CC3)c1
< 1000 nM

Next up: Clc1ccccc1-c1nc2c(o1)CN(c1ccccn1)CC2
< 10000 nM

Next up: COc1cccc(-c2nc3c(o2)CN(c2ccccn2)CC3)c1
< 10000 nM

Next up: N#Cc1cc(F)cc(N2CCc3oc(-c4ncco4)nc3C2)c1
< 10000 nM

---

Would you mind telling me the reported IC50 of each entry?
# Experimental system: human recombinant mGluR5 receptor (Homo sapiens)
# Construct: expressed in transfected cells; expression induced with doxycycline
# Measurement notes: mGluR5 in vitro functional assay (aequorin cell line, inhibition of glutamate EC80 response)
# Type: cell-based
# Run conditions: Table 1; aequorin cell line expressing human mGluR5, reference agonist glutamate at EC80; obtained in duplicate; read-out: IC50

Fill in the blank: the reported IC50 of N#Cc1nccnc1N1CCc2oc(-c3cccc(Cl)c3)nc2C1 [Compound 53] is ____.
< 1000 nM

Next up: Clc1cccc(N2CCn3nc(-c4ccccn4)nc3C2)c1 [Compound 113]
< 1000 nM

Next up: Clc1cccc(-c2cn3c(n2)CN(c2cccnc2)CC3)c1 [Compound 106]
< 10000 nM

Next up: N#Cc1cccc(N2CCc3oc(-c4ccccn4)nc3C2)c1 [Compound 23]
< 1000 nM

Next up: c1ccc(-c2nc3c(o2)CN(c2nccs2)CC3)nc1 [Compound 22]
< 10000 nM

---

# Experimental system: human recombinant mGluR5 receptor (Homo sapiens)
# Construct: expressed in transfected cells; expression induced with doxycycline
# Measurement notes: mGluR5 in vitro functional assay (aequorin cell line, inhibition of glutamate EC80 response)
# Format: cell-based
# Run conditions: Table 2; aequorin cell line expressing human mGluR5, reference agonist glutamate at EC80; obtained in duplicate; read-out: IC50
pIC50: −log10 of the molar value.
Measured attribute: pIC50

Find pIC50 (human recombinant mGluR5 receptor (Homo sapiens)) for the entry Fc1ccc(N2CCCc3oc(-c4ncccn4)nc3C2)cc1F
< 5.00

Next up: N#Cc1cc(N2CCCc3oc(-c4ccccn4)nc3C2)cc(F)c1O
> 5.00

Next up: Fc1ccc(-c2nc3c(o2)CCN(c2cccc(F)c2)C3)nc1
> 6.00

Next up: Cc1nc(N2CCc3oc(-c4ccccn4)nc3C2)cs1
> 6.00

Next up: Fc1ccc(N2CCc3oc(-c4ccccn4)nc3C2)cc1Cl
> 6.00

Next up: Fc1cccc(N2CCc3oc(-c4ccncn4)nc3C2)c1
> 5.00

Next up: N#Cc1cc(F)cc(N2CCCc3oc(-c4ccncn4)nc3C2)c1
> 6.00

Next up: N#Cc1cc(F)ccc1N1CCc2oc(-c3ccccn3)nc2C1
> 6.00

Next up: Fc1cc(N2CCc3oc(-c4ccccn4)nc3C2)cc(F)c1F
> 6.00

---

# Experimental system: human recombinant mGluR5 receptor (Homo sapiens, UniProt P41594)
# Construct: expressed in transfected cells; expression induced with doxycycline
# Sequence (P41594 21-1212): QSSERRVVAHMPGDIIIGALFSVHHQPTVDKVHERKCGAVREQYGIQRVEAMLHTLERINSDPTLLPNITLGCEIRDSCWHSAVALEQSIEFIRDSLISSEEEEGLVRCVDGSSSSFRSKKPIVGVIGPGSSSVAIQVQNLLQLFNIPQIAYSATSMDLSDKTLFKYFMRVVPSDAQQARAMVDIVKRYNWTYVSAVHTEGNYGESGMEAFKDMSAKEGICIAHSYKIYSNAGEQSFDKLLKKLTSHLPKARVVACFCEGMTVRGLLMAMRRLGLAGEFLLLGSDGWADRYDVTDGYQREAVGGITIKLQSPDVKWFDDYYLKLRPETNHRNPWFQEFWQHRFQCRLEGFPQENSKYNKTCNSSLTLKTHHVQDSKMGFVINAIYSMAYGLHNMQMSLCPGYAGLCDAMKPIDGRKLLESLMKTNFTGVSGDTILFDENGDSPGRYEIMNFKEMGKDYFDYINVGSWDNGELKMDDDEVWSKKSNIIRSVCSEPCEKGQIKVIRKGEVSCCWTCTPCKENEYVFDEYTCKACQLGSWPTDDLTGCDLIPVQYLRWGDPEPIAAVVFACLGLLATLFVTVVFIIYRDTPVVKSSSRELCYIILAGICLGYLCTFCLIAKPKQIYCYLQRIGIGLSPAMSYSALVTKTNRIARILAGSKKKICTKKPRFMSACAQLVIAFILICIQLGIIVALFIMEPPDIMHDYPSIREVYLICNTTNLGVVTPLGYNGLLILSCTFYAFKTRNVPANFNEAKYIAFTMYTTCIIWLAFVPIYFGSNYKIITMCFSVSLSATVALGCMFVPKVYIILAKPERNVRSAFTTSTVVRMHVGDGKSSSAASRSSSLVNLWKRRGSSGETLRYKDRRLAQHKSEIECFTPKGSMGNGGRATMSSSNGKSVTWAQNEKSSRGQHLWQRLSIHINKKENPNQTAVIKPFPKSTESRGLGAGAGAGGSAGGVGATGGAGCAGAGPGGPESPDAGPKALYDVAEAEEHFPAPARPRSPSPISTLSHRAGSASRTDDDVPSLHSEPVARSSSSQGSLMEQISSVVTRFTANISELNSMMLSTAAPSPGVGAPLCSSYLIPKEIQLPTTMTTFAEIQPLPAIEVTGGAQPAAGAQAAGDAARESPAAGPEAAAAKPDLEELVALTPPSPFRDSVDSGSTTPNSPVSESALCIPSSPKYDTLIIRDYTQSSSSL
# Measurement notes: mGluR5 in vitro functional assay (aequorin cell line, inhibition of glutamate EC80 response)
# Format: cell-based
# Run conditions: Table 1; aequorin cell line expressing human mGluR5, reference agonist glutamate at EC80; obtained in duplicate; read-out: IC50
Measured attribute: IC50

Fill in the blank: the reported IC50 of Clc1cccc(-c2nc3c(o2)CCN(Cc2ccccn2)C3)c1 is ____.
< 10 µM

Next up: N#Cc1cccnc1N1CCc2oc(-c3cccc(Cl)c3)nc2C1
< 1 µM

Next up: COc1ccc(-c2nc3c(o2)CCN(c2cnccn2)C3)cc1
> 10 µM

Next up: Fc1ccc(-c2nc3c(o2)CCN(c2ccccn2)C3)cc1
< 10 µM

Next up: N#Cc1cc(F)cc(N2CCc3nc(-c4ccccn4)sc3C2)c1
< 10 µM

---

# Experimental system: human recombinant mGluR5 receptor (Homo sapiens)
# Construct: expressed in transfected cells; expression induced with doxycycline
# Measurement notes: mGluR5 in vitro functional assay (aequorin cell line, inhibition of glutamate EC80 response)
# Assay type: cell-based
# Run conditions: Table 1; aequorin cell line expressing human mGluR5, reference agonist glutamate at EC80; obtained in duplicate; read-out: IC50
pIC50: −log10 of the molar value.
Measured attribute: pIC50

Fill in the blank: the reported pIC50 of N#Cc1cccc(CN2CCc3oc(-c4ccccn4)nc3C2)c1 is ____.
> 6.00

Next up: N#Cc1cccc(-c2nc3c(o2)CCN(c2ccccn2)C3)c1
< 5.00

Next up: c1ccc(-c2nc3c(o2)CN(c2ccccn2)CC3)cc1
< 5.00

Next up: FC(F)(F)c1ccc(-c2nc3c(o2)CCN(c2cnccn2)C3)cc1
< 5.00

Next up: N#Cc1cc(F)cc(N2CCc3nc(-c4ccccn4)oc3C2)c1
> 6.00

Next up: N#Cc1cc(F)cc(N2CCn3nc(-c4ccccn4)nc3C2)c1
> 6.00

Next up: N#Cc1cccc(-c2nc3c(o2)CN(c2ncccc2C#N)C3)c1
> 6.00

Next up: N#Cc1cccc(N2CCCc3nc(-c4ncccn4)oc3C2)c1
> 6.00

Next up: N#Cc1cc(F)cc(N2CCc3nc(-c4ccccn4)[nH]c3C2)c1
< 5.00

Next up: N#Cc1cncc(N2CCc3oc(-c4ccccn4)nc3C2)c1
> 6.00

Next up: FC(F)(F)c1cccc(N2CCCc3nc(-c4ccccn4)oc3C2)c1
> 5.00

Next up: COc1cccc(-c2nc3c(o2)CN(c2ncccc2C#N)CC3)c1
> 6.00

Next up: N#Cc1cccc(CN2CCc3nc(-c4ccccn4)oc3C2)c1
> 5.00

Next up: N#Cc1cccnc1N1CCc2nc(-c3ccccn3)oc2C1
> 6.00

Next up: c1ccc(-c2nc3c(o2)CN(c2cccnc2)CC3)nc1
< 5.00

Next up: N#Cc1cccc(C(=O)N2CCc3nc(-c4ccccn4)oc3C2)c1
> 5.00

Next up: COc1cccc(-c2nc3c(o2)CCN(c2ncccc2C#N)C3)c1
< 5.00

Next up: N#Cc1cc(F)cc(N2CCCc3oc(-c4ccccn4)nc3C2)c1
> 6.00

Next up: Fc1cc(F)cc(N2CCCc3oc(-c4ccccn4)nc3C2)c1
> 6.00

Next up: N#Cc1cccnc1N1CCc2nc(-c3ccccc3Cl)oc2C1
> 5.00
